test target: constitutive RET kinase phosphorylation in TT cells (Homo sapiens (Human), UniProt P07949, C634W)
Sequence (P07949 29-1114 C634W): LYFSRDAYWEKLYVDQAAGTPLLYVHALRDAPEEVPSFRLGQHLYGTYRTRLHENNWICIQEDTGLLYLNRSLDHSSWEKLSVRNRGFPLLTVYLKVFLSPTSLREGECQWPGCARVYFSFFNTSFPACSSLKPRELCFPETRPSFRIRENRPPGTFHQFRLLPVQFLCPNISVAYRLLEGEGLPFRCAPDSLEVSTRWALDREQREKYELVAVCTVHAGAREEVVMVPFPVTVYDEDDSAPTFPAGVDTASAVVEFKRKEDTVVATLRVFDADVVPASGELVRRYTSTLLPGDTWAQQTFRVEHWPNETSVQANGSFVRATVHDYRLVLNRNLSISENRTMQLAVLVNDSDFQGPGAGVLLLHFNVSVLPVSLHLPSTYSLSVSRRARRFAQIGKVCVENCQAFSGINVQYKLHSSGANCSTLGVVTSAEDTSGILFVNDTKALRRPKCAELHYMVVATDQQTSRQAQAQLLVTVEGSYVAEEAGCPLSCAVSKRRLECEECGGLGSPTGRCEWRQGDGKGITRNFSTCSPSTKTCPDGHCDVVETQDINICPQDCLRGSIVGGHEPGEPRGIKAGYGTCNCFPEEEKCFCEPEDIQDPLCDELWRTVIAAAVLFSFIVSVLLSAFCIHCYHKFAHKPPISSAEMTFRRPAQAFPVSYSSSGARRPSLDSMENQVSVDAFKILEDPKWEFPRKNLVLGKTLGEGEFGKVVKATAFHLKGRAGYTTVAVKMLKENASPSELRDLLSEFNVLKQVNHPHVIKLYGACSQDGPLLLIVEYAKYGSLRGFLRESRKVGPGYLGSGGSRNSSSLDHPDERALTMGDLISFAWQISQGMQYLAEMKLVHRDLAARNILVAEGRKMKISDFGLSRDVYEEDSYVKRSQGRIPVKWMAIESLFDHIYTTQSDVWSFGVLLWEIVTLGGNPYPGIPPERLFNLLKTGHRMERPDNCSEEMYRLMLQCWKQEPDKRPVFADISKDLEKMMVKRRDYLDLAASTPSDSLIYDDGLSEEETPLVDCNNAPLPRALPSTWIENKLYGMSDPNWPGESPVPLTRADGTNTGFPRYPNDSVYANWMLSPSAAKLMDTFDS
method: RET kinase cell-based mechanistic assay
pIC50: −log10 of the molar value. Where a name gives a salt, the structure may show the parent alone.
I'd appreciate it if you could supply pIC50 values for the items below.

input: Give its pIC50 value. Item: CCOc1cc(-c2ccc(CC(=O)Nc3cc(-n4cc(C)cn4)cc(C(F)(F)F)c3)c(F)c2)c[nH]c1=O [Example 34, hydrochloride]
output: 6.30 to 7.00

input: Consider the compound CCOc1cc(-c2ccc(CC(=O)Nc3ccc(CN4CCN(CC)CC4)c(C(F)(F)F)c3)c(F)c2)c[nH]c1=O [Example 21, dihydrochloride] and give its measured pIC50.
output: > 7.00

input: Name the recorded pIC50 for CCOc1cc(-c2ccc(CC(=O)Nc3cc(C(C)(C)C(F)(F)F)nn3C)c(F)c2)c[nH]c1=O [Example 41, hydrochloride] .
output: > 7.00

input: Look at this compound and give its reported pIC50. CCOc1cc(-c2ccc(CC(=O)Nc3cc(-n4ccc(C)n4)cc(C(F)(F)F)c3)c(F)c2)c[nH]c1=O [Example 35, hydrochloride]
output: > 7.00

input: Request the reported pIC50 associated with CCOc1cc(=O)[nH]cc1-c1ccc(CC(=O)Nc2cnc(OCCN(C)C)c(C(F)(F)F)c2)c(F)c1 [Example 10, dihydrochloride]
output: 5.00 to 6.30

input: Find the recorded pIC50 belonging to CCOc1cc(-c2ccc(CC(=O)Nc3cc(C(C)(C)C(F)(F)F)no3)c(F)c2)c[nH]c1=O and report it.
output: > 7.00

input: // pIC50 lookup, key: CCOc1cc(-c2ccc(CC(=O)Nc3cc(-c4cn[nH]c4)cc(C(F)(F)F)c3)c(F)c2)c[nH]c1=O [Example 36, hydrochloride]
output: > 7.00

input: # query: pIC50 of entry CCOc1cc(-c2ccc(CC(=O)Nc3cc(C(C)(C)C(F)(F)F)n[nH]3)c(F)c2)c[nH]c1=O [Example 42, hydrochloride]
output: > 7.00

input: Quick one: pIC50 for CCOc1cc(-c2ccc(CC(=O)Nc3cc(OCCN(C)C)cc(C(F)(F)F)c3)c(F)c2)c[nH]c1=O ?
output: > 7.00

input: Entry CCOc1cc(-c2ccc(CC(=O)Nc3cc(OCCN4CCOCC4)cc(C(F)(F)F)c3)c(F)c2)c[nH]c1=O has what pIC50?
output: > 7.00

input: Given the compound CCOc1cc(=O)[nH]cc1-c1ccc(CC(=O)Nc2cnc(C(C)(C)CO)c(C(F)(F)F)c2)c(F)c1 , what is its reported pIC50?
output: > 7.00

input: Which measured pIC50 value corresponds to CCOc1cc(=O)[nH]cc1-c1ccc(CC(=O)Nc2ccc(CC(C)(C)CO)c(C(F)(F)F)c2)cc1F ?
output: > 7.00

input: // lookup pIC50 for CCOc1cc(=O)[nH]cc1-c1ccc(CC(=O)Nc2ccc(C(C)(C)C(F)(F)F)nc2)c(F)c1 [Example 37, hydrochloride]
output: 6.30 to 7.00

input: Which pIC50 value belongs to CCOc1cc(-c2ccc(CC(=O)Nc3ccc(CC(F)(F)CO)c(C(F)(F)F)c3)c(F)c2)c[nH]c1=O ?
output: > 7.00

input: Sample CCOc1cc(-c2ccc(CC(=O)Nc3cc(-c4cnn(C)c4)cc(C(F)(F)F)c3)c(F)c2)c[nH]c1=O [Example 45, hydrochloride] — what was its pIC50?
output: > 7.00
